Reported melting point values for a set of compounds

Illustrative cases are given below, each with its answer.
{"compound_structure": "Cc1c(N[C@H]2CC[C@H](N)CC2)nc2ccnn2c1Nc1cccc(Cl)c1", "measured_property": "melting point", "measured_result": "209 to 212 °C"}
{"compound_structure": "CCOc1cccc(Nc2c(CC)c(N[C@H]3CC[C@H](N)CC3)nc3ccnn23)c1", "measured_property": "melting point", "measured_result": "150 to 152 °C"}
{"compound_structure": "Cc1c(N[C@H]2CC[C@H](N)CC2)nc2ccnn2c1Nc1cccc(Br)c1", "measured_property": "melting point", "measured_result": "215 to 216 °C"}
{"compound_structure": "CCc1c(N[C@H]2CC[C@H](N)CC2)nc2ccnn2c1Nc1ccccc1C", "measured_property": "melting point", "measured_result": "176 to 178 °C"}
{"compound_structure": "CCOc1ccc(Nc2c(C)c(N[C@H]3CC[C@H](N)CC3)nc3c(CO)cnn23)cc1", "measured_property": "melting point", "measured_result": "101 to 104 °C"}
{"compound_structure": "CCc1c(N[C@H]2CC[C@H](N)CC2)nc2ccnn2c1Nc1ccc(Oc2ccccc2)cc1", "measured_property": "melting point", "measured_result": "147 to 149 °C"}
{"compound_structure": "CSc1ccc(Nc2c(C)c(N[C@H]3CC[C@H](N)CC3)nc3ccnn23)cc1", "measured_property": "melting point", "measured_result": "185 to 187 °C"}
{"compound_structure": "CCc1c(N[C@H]2CC[C@H](N)CC2)nc2ccnn2c1Nc1cccc(I)c1", "measured_property": "melting point", "measured_result": "199 to 201 °C"}

Entry CCc1c(N[C@H]2CC[C@H](N)CC2)nc2ccnn2c1Nc1ccc(OC)c(Cl)c1 needs its melting point filled in; supply it.
189 to 192 °C

Entry Cc1c(N[C@H]2CC[C@H](N)CC2)nc2ccnn2c1Nc1cccc(O)c1 needs its melting point filled in; supply it.
145 to 150 °C

Entry CCCCOc1ccc(Nc2c(CCCO)c(N[C@H]3CC[C@H](N)CC3)nc3ccnn23)cc1 needs its melting point filled in; supply it.
116 to 118 °C

----------
# tgt: MAPKAP-K2 (Homo sapiens, UniProt P49137)
# Sequence (P49137 whole entry): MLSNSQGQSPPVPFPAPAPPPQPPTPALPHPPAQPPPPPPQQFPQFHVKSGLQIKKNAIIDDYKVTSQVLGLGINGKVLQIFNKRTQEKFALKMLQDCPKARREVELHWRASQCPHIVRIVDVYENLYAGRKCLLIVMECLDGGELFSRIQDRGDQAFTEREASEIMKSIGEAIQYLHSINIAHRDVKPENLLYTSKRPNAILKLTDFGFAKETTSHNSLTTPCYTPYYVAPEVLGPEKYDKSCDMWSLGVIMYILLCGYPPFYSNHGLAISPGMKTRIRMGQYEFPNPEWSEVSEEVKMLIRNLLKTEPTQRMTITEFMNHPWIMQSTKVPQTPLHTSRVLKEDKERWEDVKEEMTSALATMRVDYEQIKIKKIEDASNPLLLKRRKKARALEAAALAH
# experiment_notes: MAPKAP-K2 enzyme activity inhibition (33P-ATP filter plate kinase assay); further: key: +: active; ++: more active; +++: very active
# Format: biochemical
# test_conditions: MAPKAP-K2 inhibitory activity; assays conducted at typically 1-100 μM
measured_property: activity (efficacy against MAPKAP-K2)

Illustrative cases are given below, each with its answer.
{"molecule": "N[C@H]1CC[C@H](Nc2nc3ccnn3c(Nc3ccc(F)c(Cl)c3)c2Cc2ccccc2)CC1", "tgt": "MAPKAP-K2 (Homo sapiens, UniProt P49137)", "activity (efficacy against MAPKAP-K2)": "+++"}
{"molecule": "Cc1c(NC2CCCNC2)nc2ccnn2c1Nc1ccc(I)cc1 (stereo not shown)", "tgt": "MAPKAP-K2 (Homo sapiens, UniProt P49137)", "activity (efficacy against MAPKAP-K2)": "+++"}
{"molecule": "COc1cccc(Nc2c(C)c(N[C@H]3CC[C@H](N)CC3)nc3ccnn23)c1", "tgt": "MAPKAP-K2 (Homo sapiens, UniProt P49137)", "activity (efficacy against MAPKAP-K2)": "++"}
{"molecule": "N[C@H]1CC[C@H](Nc2cc(Nc3ccccc3Cl)n3ncc(I)c3n2)CC1", "tgt": "MAPKAP-K2 (Homo sapiens, UniProt P49137)", "activity (efficacy against MAPKAP-K2)": "++"}
{"molecule": "Cc1c(N[C@H]2CC[C@H](N)CC2)nc2ccnn2c1Nc1ccc(-c2ccc(OC(F)(F)F)cc2)cc1", "tgt": "MAPKAP-K2 (Homo sapiens, UniProt P49137)", "activity (efficacy against MAPKAP-K2)": "+++"}
{"molecule": "CCCOc1ccc(Nc2c(C)c(N[C@H]3CC[C@H](N)CC3)nc3ccnn23)cc1", "tgt": "MAPKAP-K2 (Homo sapiens, UniProt P49137)", "activity (efficacy against MAPKAP-K2)": "+++"}
{"molecule": "COCc1cccc(-c2ccc(Nc3c(C)c(N[C@H]4CC[C@H](N)CC4)nc4ccnn34)cc2)c1", "tgt": "MAPKAP-K2 (Homo sapiens, UniProt P49137)", "activity (efficacy against MAPKAP-K2)": "+++"}
{"molecule": "Cc1c(N[C@H]2CC[C@H](N)CC2)nc2ccnn2c1Nc1ccccc1", "tgt": "MAPKAP-K2 (Homo sapiens, UniProt P49137)", "activity (efficacy against MAPKAP-K2)": "+++"}
{"molecule": "CCOc1ccc(Nc2c(C)c(N[C@@H]3CCNC3)nc3ccnn23)cc1", "tgt": "MAPKAP-K2 (Homo sapiens, UniProt P49137)", "activity (efficacy against MAPKAP-K2)": "++"}
{"molecule": "Cc1c(N[C@H]2CC[C@H](N)CC2)nc2ccnn2c1Nc1ccc(OCc2ccccc2)cc1", "tgt": "MAPKAP-K2 (Homo sapiens, UniProt P49137)", "activity (efficacy against MAPKAP-K2)": "+++"}

Attention now turns to another entry.
Entry Cc1c(N[C@H]2CC[C@H](N)CC2)nc2c(F)cnn2c1Nc1ccc(I)cc1 needs its activity (efficacy against MAPKAP-K2) filled in; supply it.
+++
